ASSAY_INFO: Selectivity index, ratio of IC50 for rat L6 cells to IC50 for intracellular amastigote form of Trypanosoma cruzi Tulahuen strain C2C4
Type: toxicity, cell-based
TEST_SETTINGS: read-out: Ratio IC50
READOUT_KIND: selectivity ratio
Write no unit; give the number alone.

Task: Given the compound `NCCCCCNCc1ccc(OC2=CC(=O)c3ccccc3C2=O)cc1` , write its reported selectivity ratio.
Result: 0.45

Task: Given the compound `NCCCNCCCCNCc1ccc(OC2=CC(=O)c3cc4ccccc4cc3C2=O)cc1` , write its reported selectivity ratio.
Result: 0.16

Task: Given the compound `NCCCNCCCNCCCNCc1ccc(OC2=CC(=O)c3ccccc3C2=O)cc1` , write its reported selectivity ratio.
Result: 0.34

Task: Given the compound `NCCCNCCCCNCCCNCc1ccc(OC2=CC(=O)c3ccccc3C2=O)cc1` , write its reported selectivity ratio.
Result: 0.29

Task: Given the compound `NCCCCNCc1ccc(OC2=CC(=O)c3ccccc3C2=O)cc1` , write its reported selectivity ratio.
Result: 0.37

Task: Given the compound `NCCCCCNCc1ccc(OC2=CC(=O)c3cc4ccccc4cc3C2=O)cc1` , write its reported selectivity ratio.
Result: 0.29
